Below is a list of entries, each paired with its recorded Ancestral Pseudovirus IC50 value.
system name: C-terminally truncated SARS-CoV-2 S protein (pSARS-CoV2-Strunc), ancestral (SARS-CoV-2, UniProt P0DTC2 14-1273)
procedure details: cell-based or functional assay
quantity name: Ancestral Pseudovirus IC50 (µg/mL)

INSERT INTO assay_data (binder, quantity_name, number) VALUES
  ('fp.009 (antibody, V domains shown) VH: VQLVESGGGVVQPGTSLTLSCEASGFTFSNYAMHWVRQAPGKGLEWVAIISFDTRNKKFAGSVQGRFSISRDNAKNSIYLQMNNLRPEDTGIYYCARDVFLSDYDSRGFDRTRGGFDYWGQGTLVTVSS VL: EIVMTQSPATLSVSPGEKATLSCRASESVGSSLAWYQQKLGQAPRLLIYGASTRATGIPARFSGSGSGAEFTLTISSLQSEDFAIYYCQQYGDWPLLTFGGGTKVEIK', 'Ancestral Pseudovirus IC50', 0.873),
  ('hr2.015 (antibody, V domains shown) VH: QVQLVQSGAEVKKPGASVKVSCKASGYTFSSYYVNWVRQAPGQGLEWLGIINRSGSSTIYAQKFQGRVTMTRDTSTSTVYLELSSLRSEDTAVYYCARDQDHALHWGQGTLVTVSS VL: QSVLTQPPSVSAAPGQKVTISCSGSSSNIGSNYVSWYQQLPGTAPKLLIYDNSERPSGIPDRFSGSRSGTSATLGITGLQTGDEADYYCGTWDTSLSAWVFGGGTKLTVL', 'Ancestral Pseudovirus IC50', 3.83),
  ('fp.003 (antibody, V domains shown) VH: VQLVESGGGVVQPGTSLRLSCTASGFSFSNYAMHWVRQAPGKGLEWVAIISFDTRNKEFADSVKGRFSISRDNSKNSLNLQMNSLRPEDTGVYYCARDLFLSDYDSRGYEPSRGGFDYWGQGTLVTVSS VL: EIVMTQSPATLSVSPGERATLSCRASQSVSSSLAWYQQKLGQPPRLLIYGASTRATGIPARFSGSGSGTEFTLTISSLKSEDSAVYYCQQYNDWPLLSFGGGTKVEIK', 'Ancestral Pseudovirus IC50', 9.26),
  ('fp.004 (antibody, V domains shown) VH: VQLVESGGGVVQPGTSLRLSCVASGFTFSNYAMHWVRQAPGKGLEWVAIISFDTRNTASAASVKGRFNISRDNSKNSLYLQMNSLRPEDTGVYYCARDLFLSDYDSRGYDPITGGFDCWGQGTLVTVSS VL: EIVMTQSPAALSVSPGEGATLSCRASQSVGSRLAWYQQKLGRPPRLLIYGASTRATGIPARFSGSGSGTEFTLTISSLQSEDFAVYYCQQYNDWPLLTFGGGTKVKIK', 'Ancestral Pseudovirus IC50', 7.84);
